# Target under test: human IDO1 (Homo sapiens)
# Sequence (P14902 whole entry): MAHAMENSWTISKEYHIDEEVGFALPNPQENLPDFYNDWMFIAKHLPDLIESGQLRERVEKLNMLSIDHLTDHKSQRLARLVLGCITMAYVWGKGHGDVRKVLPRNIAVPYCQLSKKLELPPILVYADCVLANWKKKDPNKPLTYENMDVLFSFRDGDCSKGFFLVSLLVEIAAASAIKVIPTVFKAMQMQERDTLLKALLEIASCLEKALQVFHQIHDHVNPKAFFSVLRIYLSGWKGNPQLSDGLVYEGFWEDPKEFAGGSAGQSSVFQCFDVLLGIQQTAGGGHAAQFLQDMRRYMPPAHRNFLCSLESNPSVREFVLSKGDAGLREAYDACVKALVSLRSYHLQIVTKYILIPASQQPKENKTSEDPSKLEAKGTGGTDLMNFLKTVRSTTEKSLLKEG
# Protocol description: Assessment of human IDO-1 inhibitory activity in Hela cells (Interferon-gamma stimulated HeLa cells, Ehrlich reagent, absorbance 490 nm)
# Format: cell-based
# Design: endogenous in cells; host or cells: HeLa cells stimulated with interferon-gamma
# Condition details: Hela Human IDO-1 cellular assay
Assay endpoint: IC50

Please review the following examples before continuing.
| Molecule | Target under test | IC50 |
| --- | --- | --- |
| CCC(CC(=O)O)c1ccc(N(CC)C2CCOC2)c(NC(=O)Nc2ccc(Cl)cc2F)c1 (single isomer, unassigned) [948 D2] | human IDO1 (Homo sapiens) | < 0.05 µM |
| CCOc1ncc(Nc2cc([C@H](CC)CC(O)C(F)(F)F)ccc2N(CC)C2CCOCC2)cn1 (single isomer, unassigned) [Example 1336 D1] | human IDO1 (Homo sapiens) | < 0.05 µM |
| CCOc1ncc(Nc2cc(C(CC)CC(=O)O)ccc2N(CCOC)C2CCOCC2)cn1 (single isomer, unassigned) [Example 1260] | human IDO1 (Homo sapiens) | < 0.05 µM |

Fill in reported IC50 for this entry: CCC(CC(=O)O)c1ccc(N2CCOCC2)c(NC(=O)Nc2ccc(C)cc2)c1 (single isomer, unassigned) [Example 8 Enantiomer 1]
> 0.05 µM

Fill in reported IC50 for this entry: CCN(c1ccc(C(CC(=O)O)C2CC2)cc1NC(=O)Nc1ccc(C#N)cc1)C1CCOCC1 (single isomer, unassigned) [Example 255 Enantiomer 1]
> 0.05 µM

Fill in reported IC50 for this entry: CCCN(c1ccc([C@H](CC)CC(=O)O)cc1Nc1cnc(OCC2CC2)nc1)C1CCOCC1 (single isomer, unassigned) [Example 554]
< 0.005 µM
